Biological target: human GPRC5D (human, UniProt Q9NZD1 1-345)
Sequence (Q9NZD1 whole entry): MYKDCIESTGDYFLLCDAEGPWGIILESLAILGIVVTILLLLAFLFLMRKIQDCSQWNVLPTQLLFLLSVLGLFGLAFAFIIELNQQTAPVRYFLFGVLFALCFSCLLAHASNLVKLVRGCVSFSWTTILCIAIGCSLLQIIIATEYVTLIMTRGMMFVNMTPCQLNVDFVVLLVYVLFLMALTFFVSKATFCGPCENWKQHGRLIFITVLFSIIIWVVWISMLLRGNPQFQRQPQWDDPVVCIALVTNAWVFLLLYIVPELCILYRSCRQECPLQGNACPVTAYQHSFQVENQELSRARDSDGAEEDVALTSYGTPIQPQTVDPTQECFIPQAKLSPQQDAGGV
Assay: cell-based or functional assay
Reported Endpoint: CAR-J2 EC50 [ng/mL] (PGLALA-CAR-J activation, L363 target cells) (ng/mL)

- Binder: "P1AE5729 (antibody, V domains shown, Humanized 5E11 IgG; PGLALA Fc implied by the CAR-J assay; also called 5E11_VH1d + 5E11_VL2b) VH: ELQLLESGGGLVQPGGSLRLSCAASGFTFSKYAMAWVRQAPGKGLEWVASISTGGVNTYYADSVKGRFTISRDNAKNTLYLQMNSLRAEDTAVYYCATHTGDYFDYWGQGTMVTVSS VL: EIVLTQSPGTLSLSPGERATLSCRASQSVSISGINLMNWYQQKPGQQPKLLIYHASILASGIPDRFSGSGSGTDFTLTISRLEPEDFAVYYCQQTRESPLTFGQGTRLEIK"
  Recorded Value: 61.3
